test system: HT29 colon; test: NCI-60 one-dose screen, 48 h (100 = growth as untreated, 0 = no growth, -100 = all killed); details: 10 µM unless noted
Compounds without any hit were thinned out: in the full panel of roughly 83,000, 20% have a hit.
MEASURED QUANTITY: growth (%)
Your answer should be a plain number; it is taken to be in %.

Reference set, count: 10
Nc1cc(N)c2nc(NCCc3ccc(Cl)c(Cl)c3)cnc2c1; 41.7
Nc1ncn([C@@H]2O[C@H](CO)[C@@H](O)C2(F)F)c(=O)n1; 70.1
CCOC(=O)CCCCCCCCC(=O)OCC; 109
CCOC(=O)c1cc(C(=O)c2ccc(Br)cc2)n2cc(C)cc(C)c12; 82.3
CC(C)OC(=O)[C@H](C)N[P@@](=O)(OC[C@@]1(C)O[C@@H](n2cc(F)c(N)nc2=O)C[C@@H]1O[P@](=O)(N[C@@H](C)C(=O)OC(C)C)Oc1ccccc1)Oc1ccccc1; 86
NCCCOc1cc(Cl)ccc1NC(=O)c1cc2ccccc2cc1OCCCN; -91.3
O=C(/C(Br)=C/c1ccccc1)c1ccccc1; -66.2
O=S(=O)(O)c1ccc2c(c1)Sc1cc(S(=O)(=O)O)ccc1O2; 106
COc1ccc2cnc(N)c(C#Cc3cc(C(=O)Nc4ccc(CN5CCN(C)CC5)c(C(F)(F)F)c4)cnc3C)c2c1; 13.2
NC(N)=Nc1ccc(/C=C2\C=Cc3ccccc32)cc1; 36.1

Query: Indicate the recorded growth value for this compound: C/C(=C\c1ccc2ccccc2c1)[N+](=O)[O-]
Reply: -9.28

Query: Indicate the recorded growth value for this compound: O=C1Nc2c(c(=O)n(-c3ccccc3)c3ccccc23)C(c2ccc(Cl)cc2)N1 (centres undefined)
Reply: 106

Query: Indicate the recorded growth value for this compound: COc1ccc(-c2nc(N)n(C(=S)Nc3ccccc3)n2)cc1
Reply: 99.4

Query: Indicate the recorded growth value for this compound: CCCCn1c(Cc2ccc(OC)cc2)nc2cc(OC)c(OC)cc2c1=O
Reply: 101

Query: Indicate the recorded growth value for this compound: Cc1nc(NC(=S)Nc2ccc(F)cc2)sc1C(=O)NNC(=S)Nc1ccc(F)cc1
Reply: 61.7

Query: Indicate the recorded growth value for this compound: N=C(N)N=Nc1ccc(NN=C(N)N)cc1
Reply: 91.1

Query: Indicate the recorded growth value for this compound: O=C(O)CS(=O)c1ccc(Cl)cc1 (centres undefined)
Reply: 105

Query: Indicate the recorded growth value for this compound: CCCC(=O)Nc1ccccc1C(=O)O
Reply: 96.6

Query: Indicate the recorded growth value for this compound: CN1NC(c2ccccc2)NN(C)C1=O
Reply: 107
